- Assay target: Gal(b1-3)GlcNAc(b1-6)GalNAc
- Test name: glycan array binding signal (z-score within array); higher = stronger binding
- Experimental context: glycan notation: IUPAC condensed, linker removed
Shown is part of a subset that was picked to be rich in the strongest signals.
Each entry below lists one item and its recorded glycan array binding signal (z-score) value.
Just the number, please, no unit after it.

Recorded results for 5 binders are shown here.
INSERT INTO results (binder, quantitative_result) VALUES
  ('DC-ASGPR S+GEE (Homo sapiens) (protein) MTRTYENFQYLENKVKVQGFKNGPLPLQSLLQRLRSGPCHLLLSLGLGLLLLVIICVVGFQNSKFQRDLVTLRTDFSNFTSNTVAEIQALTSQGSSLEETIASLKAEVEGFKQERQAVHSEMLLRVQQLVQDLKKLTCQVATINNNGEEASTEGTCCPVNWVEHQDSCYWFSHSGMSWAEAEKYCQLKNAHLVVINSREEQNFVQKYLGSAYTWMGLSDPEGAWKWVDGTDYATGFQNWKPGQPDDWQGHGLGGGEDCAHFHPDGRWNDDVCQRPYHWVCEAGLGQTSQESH', 3.77),
  ('Gal 12 (Homo sapiens), Q96DT0 (protein) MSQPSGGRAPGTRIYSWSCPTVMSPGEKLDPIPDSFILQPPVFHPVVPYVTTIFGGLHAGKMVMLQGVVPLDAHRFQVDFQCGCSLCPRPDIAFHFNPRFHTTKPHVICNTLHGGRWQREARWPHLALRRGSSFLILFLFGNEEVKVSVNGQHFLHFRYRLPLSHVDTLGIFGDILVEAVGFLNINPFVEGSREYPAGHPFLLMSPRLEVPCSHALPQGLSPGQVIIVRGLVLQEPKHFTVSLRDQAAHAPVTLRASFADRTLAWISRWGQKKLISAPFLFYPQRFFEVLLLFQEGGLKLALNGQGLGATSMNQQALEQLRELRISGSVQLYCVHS', -0.771),
  ('MGL6A (Homo sapiens) (protein) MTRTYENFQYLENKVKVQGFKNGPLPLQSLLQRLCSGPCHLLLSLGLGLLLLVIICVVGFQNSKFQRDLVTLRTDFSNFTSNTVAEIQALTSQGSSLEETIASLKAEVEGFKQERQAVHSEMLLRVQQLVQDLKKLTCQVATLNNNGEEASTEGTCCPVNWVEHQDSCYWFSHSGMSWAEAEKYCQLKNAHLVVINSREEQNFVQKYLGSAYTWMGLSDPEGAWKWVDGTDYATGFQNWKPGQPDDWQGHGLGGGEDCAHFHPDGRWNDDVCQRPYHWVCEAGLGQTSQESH', 3.91),
  ('MGL (Homo sapiens), Q8IUN9 (protein) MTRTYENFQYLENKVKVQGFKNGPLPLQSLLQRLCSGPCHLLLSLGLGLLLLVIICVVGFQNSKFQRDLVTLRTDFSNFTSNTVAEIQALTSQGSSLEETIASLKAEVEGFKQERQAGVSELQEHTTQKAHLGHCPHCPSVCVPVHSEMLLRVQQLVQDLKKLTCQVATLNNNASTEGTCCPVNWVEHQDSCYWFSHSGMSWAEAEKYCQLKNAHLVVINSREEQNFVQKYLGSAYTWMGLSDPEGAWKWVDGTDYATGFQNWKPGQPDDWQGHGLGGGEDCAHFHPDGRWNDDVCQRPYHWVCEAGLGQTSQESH', 3.24),
  ('Cohesin-hDECTIN-1 (Homo sapiens) (protein) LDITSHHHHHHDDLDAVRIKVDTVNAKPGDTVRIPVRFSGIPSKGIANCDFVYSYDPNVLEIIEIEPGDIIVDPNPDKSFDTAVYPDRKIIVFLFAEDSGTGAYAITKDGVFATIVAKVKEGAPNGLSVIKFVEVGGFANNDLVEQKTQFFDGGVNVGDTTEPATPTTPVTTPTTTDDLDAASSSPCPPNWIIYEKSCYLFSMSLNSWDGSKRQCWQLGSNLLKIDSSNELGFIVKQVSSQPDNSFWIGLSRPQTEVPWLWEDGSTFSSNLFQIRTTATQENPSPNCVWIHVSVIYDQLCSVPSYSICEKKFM', 6.01);

Continue with the binder presented below.
Problem: Need glycan array binding signal (z-score), item ABA (Agaricus bisporus), Q00022 (protein) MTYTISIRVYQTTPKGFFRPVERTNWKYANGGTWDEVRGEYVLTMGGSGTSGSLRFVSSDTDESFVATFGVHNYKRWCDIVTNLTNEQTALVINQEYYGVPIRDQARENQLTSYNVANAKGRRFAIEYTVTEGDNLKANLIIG
Result: -0.25

Data credit: the supplement of paper PMC8728848
